FYI, the data here is from the supplement of paper PMC10567573.

protein stability index values for the sequences below.
ASSAY_NAME: protein stability index of a GFP-peptide fusion (GPS, HEK-293T) (PSI 1-6); higher = more stable;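 further: 24-mer peptide tiles fused after GFP, lentivirally expressed, FACS-sorted into six equal bins by GFP/DsRed ratio, decoded by Illumina sequencing, PSI is the read-weighted mean bin number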
EXPERIMENTAL_CONTEXT: treatment: MLN4924 1 uM, 8 h; c terminus: a fixed tail appended
The response must contain the number and no unit.

*Q* I would be grateful if you could share the reported protein stability index for RTITFEQFQEALEELAKKRFKDKS [TPPP] .
*A* 2.74

*Q* I would be grateful if you could share the reported protein stability index for ATDYLRYKPVVLLQGLSLIVTWFM [SLC19A2] .
*A* 2.42

*Q* I would be grateful if you could share the reported protein stability index for MRQFLRGLDFLHANCIVHRDLKPE [CDK4] .
*A* 2.23

*Q* I would be grateful if you could share the reported protein stability index for MADPWQECMDYAVTLARQAGEVVC [IMPA1] .
*A* 2.37
